# credit: patent US12624034B2

molecular target: AKT1 WT (Homo sapiens, UniProt P31749); construct: expressed in transfected cells; host or cells: HEK293; experiment: Live cell AKT1 WT target engagement by NanoBRET competitive probe displacement in HEK293 cells; type: binding; details: NanoBRET live cell target engagement, HEK293 cells, 2 h at 37° C.; read-out: AKT1 WT IC50
Sequence (P31749 whole entry): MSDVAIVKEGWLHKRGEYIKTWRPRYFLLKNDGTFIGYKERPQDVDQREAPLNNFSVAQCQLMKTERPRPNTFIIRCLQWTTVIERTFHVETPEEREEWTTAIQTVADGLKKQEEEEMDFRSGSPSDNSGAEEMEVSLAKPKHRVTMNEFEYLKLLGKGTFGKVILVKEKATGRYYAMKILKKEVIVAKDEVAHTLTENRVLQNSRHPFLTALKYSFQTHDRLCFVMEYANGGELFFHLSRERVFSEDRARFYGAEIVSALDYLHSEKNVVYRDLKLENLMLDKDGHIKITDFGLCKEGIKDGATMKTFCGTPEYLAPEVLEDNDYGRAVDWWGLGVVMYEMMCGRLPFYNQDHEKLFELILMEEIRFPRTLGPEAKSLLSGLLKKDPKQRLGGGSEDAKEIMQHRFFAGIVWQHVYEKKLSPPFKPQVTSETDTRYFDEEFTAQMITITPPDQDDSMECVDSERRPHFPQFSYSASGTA
parameter: IC50 (nM)
Please state the figure in nM; there is no need to write the unit.

Some compounds with recorded IC50:
Nc1ncccc1-c1nc2ccc(-n3cccn3)nc2n1-c1ccc2c(c1)CC[C@@H]2NC(=O)c1cncnc1 :: 9.21
Nc1ncccc1-c1nc2ccc(-n3cccn3)nc2n1-c1ccc2c(c1)CC[C@@H]2NC(=O)c1ccc(Cl)nc1 :: 17.4
Nc1ncccc1-c1nc2ccc(-n3cccn3)nc2n1-c1ccc2c(c1)CC[C@@H]2NC1CCN(C(=O)C2(F)CC2)CC1 :: 58.4

// moving on: another record for IC50
Tested system AKT1 WT (Homo sapiens, UniProt P31749); IC50 recorded for Nc1ncccc1-c1nc2ccc(-n3cccn3)nc2n1-c1ccc2c(c1)CC[C@@H]2NC(=O)c1cccc(O)c1 was 10.8

----------
biological target: AKT1 WT (Homo sapiens); construct: expressed in transfected cells; host or cells: HEK293; experiment: Live cell AKT1 WT target engagement by NanoBRET competitive probe displacement in HEK293 cells; type: binding; details: NanoBRET live cell target engagement, HEK293 cells, 2 h at 37° C.; read-out: AKT1 WT IC50
parameter: IC50

COc1cc(C(=O)N[C@H]2CCc3cc(-n4c(-c5cccnc5N)nc5ccc(-n6cccn6)nc54)ccc32)ccc1F [Compound 336] :: 17.7 nM
Nc1ncccc1-c1nc2ccc(C3CC3)nc2n1-c1ccc2c(c1)CC[C@@H]2NC(=O)c1ccc(C(F)F)nc1 [Compound 130] :: 46.4 nM
Nc1ncccc1-c1nc2ccc(-n3cccn3)nc2n1-c1ccc2c(c1)CC[C@@H]2NC(=O)c1ccnc2c1OC(F)(F)O2 [Compound 317] :: 131 nM
CC(C)NC(=O)N[C@H]1CCc2cc(-n3c(-c4cccnc4N)nc4ccc(-n5cccn5)nc43)ccc21 [Compound 134] :: > 1000 nM
Cc1ncc(F)cc1C(=O)N[C@H]1CCc2cc(-n3c(-c4cccnc4N)nc4ccc(-n5nccn5)nc43)ccc21 [Compound 382] :: 13.1 nM
Cc1nnn([C@H]2CCc3cc(-n4c(-c5cccnc5N)nc5ccc(-n6cccn6)nc54)ccc32)c1C [Compound 249] :: 21.8 nM
Nc1ncccc1-c1nc2ccc(-n3cccn3)nc2n1-c1ccc2c(c1)CC[C@@H]2NC(=O)c1ccc2nccn2n1 [Compound 236] :: 12.1 nM
Cc1nccnc1C(=O)N[C@H]1CCc2cc(-n3c(-c4cccnc4N)nc4ccc(-c5ccn(C(F)F)n5)nc43)ccc21 [Compound 301] :: 189 nM

The recorded IC50 for entry Nc1ncccc1-c1nc2ccc(-n3cccn3)nc2n1-c1ccc2c(c1)CC[C@@H]2NC(=O)c1cnc2nccn2c1 [Compound 160] equals 53.5 nM

Looking up Cc1nnc(C)n1[C@H]1CCc2cc(-n3c(-c4cccnc4N)nc4ccc(-n5cccn5)nc43)ccc21 [Compound 272] , I found its IC50 recorded as 38.6 nM

Just so you know, measured IC50 for CCc1cn([C@H]2CCc3cc(-n4c(-c5cccnc5N)nc5ccc(-n6cccn6)nc54)ccc32)nn1 [Compound 285] came out at 23.7 nM

For this compound ( Cn1ccc(N2CCC(N[C@H]3CCc4cc(-n5c(-c6cccnc6N)nc6ccc(-n7cccn7)nc65)ccc43)CC2)n1 [Compound 276] ), measured IC50 is 47.4 nM

Form: compound = Nc1ncccc1-c1nc2ccc(-n3cccn3)nc2n1-c1ccc2c(c1)CC[C@@H]2NC(=O)c1ccc2[nH][nH]c(=O)c2c1 [Compound 189] ; IC50 = 554 nM

Summary for this compound, C#Cc1ccc(C(=O)N[C@H]2CCc3cc(-n4c(-c5cccnc5N)nc5ccc(-n6cccn6)nc54)ccc32)cn1 [Compound 55] : IC50 is 16.2 nM
